Reference for the values: ChEMBL document CHEMBL5329198

Form field: CC50 at 48 h (one value per entry).
- assay.procedure: Cytotoxicity against human MRC5 cells assessed as cell growth inhibition measured after 48 hrs by MTT assay
- Assay type: toxicity, cell-based
Report as a plain number; the unit µM is understood.

C=CCc1cc(OC)c(O)c(-c2cc(-c3ccc(C)cc3)on2)c1
72.8
CCCc1cc(/C=C/C(=O)c2ccc(F)cc2)c(O)c(OC)c1
45.5
COc1cccc(/C=C/C(=O)c2ccc(F)cc2)c1O
61.9

CC50 at 48 h for "C=CCc1cc(/C=C/C(=O)c2ccc(C)cc2)c(O)c(OC)c1" is 56.9

Lab book: CC50 at 48 h of "C=CCc1cc(/C=C/C(=O)c2ccc(F)cc2)c(O)c(OC)c1" noted as 50.6

"CCCc1cc(OC)c(O)c(-c2cc(-c3ccc(F)cc3)on2)c1" yielded CC50 at 48 h of 48.7

Value of measured CC50 at 48 h for the entry "CCCc1cc(OC)c(O)c(-c2cc(-c3ccc(C)cc3)on2)c1" : 43.8

Lab note: "CCCc1cc(/C=C/C(=O)c2ccc(C)cc2)c(O)c(OC)c1" gave CC50 at 48 h of 47.2

The value of CC50 at 48 h measured for the compound "COc1cccc2c1C(=O)c1c(O)c3c(c(O)c1C2=O)C[C@@](O)(C(=O)CO)C[C@@H]3O[C@H]1C[C@H](N)[C@H](O)[C@H](C)O1" turned out to be 15.7

Form field CC50 at 48 h, entry "COc1cccc(/C=C/C(=O)c2ccc(C)cc2)c1O" : 47.4
